Values compiled from patent US20200024330A1.

# assayTarget: HIV-1 Env of isolate 92UG037 (HIV-1)
# assaySummary: cell-based or functional assay
Answer each item with its documented IC50 (µg/mL), pseudovirus neutralization.
Give your result in µg/mL as a bare value.

# IC50 (µg/mL), pseudovirus neutralization (binder: PGT-123 (antibody, V domains shown) VH: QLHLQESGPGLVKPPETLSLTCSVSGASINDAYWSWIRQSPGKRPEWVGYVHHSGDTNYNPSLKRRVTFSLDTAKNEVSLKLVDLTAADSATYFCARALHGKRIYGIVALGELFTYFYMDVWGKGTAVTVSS VL: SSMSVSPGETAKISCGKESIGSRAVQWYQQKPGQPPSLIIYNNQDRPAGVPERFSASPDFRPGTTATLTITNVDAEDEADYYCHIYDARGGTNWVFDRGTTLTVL ) is 0.023

# IC50 (µg/mL), pseudovirus neutralization (binder: PGT-125 (antibody, V domains shown) VH: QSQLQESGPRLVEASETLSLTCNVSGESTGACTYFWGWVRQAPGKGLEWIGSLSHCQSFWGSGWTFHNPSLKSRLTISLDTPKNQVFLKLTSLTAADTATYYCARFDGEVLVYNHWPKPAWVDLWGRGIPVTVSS VL: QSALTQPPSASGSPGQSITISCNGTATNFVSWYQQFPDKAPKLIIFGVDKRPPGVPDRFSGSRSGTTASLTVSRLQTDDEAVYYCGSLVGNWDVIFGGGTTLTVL ) is 0.005

# IC50 (µg/mL), pseudovirus neutralization (binder: PGT-127 (antibody, V domains shown) VH: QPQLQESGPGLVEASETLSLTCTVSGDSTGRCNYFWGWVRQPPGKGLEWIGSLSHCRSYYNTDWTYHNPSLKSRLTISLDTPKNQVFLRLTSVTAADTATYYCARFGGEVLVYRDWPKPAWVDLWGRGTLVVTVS VL: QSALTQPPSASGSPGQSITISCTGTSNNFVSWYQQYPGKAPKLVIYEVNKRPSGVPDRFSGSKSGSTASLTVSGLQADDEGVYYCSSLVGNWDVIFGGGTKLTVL ) is 0.014

# IC50 (µg/mL), pseudovirus neutralization (binder: PGT-126 (antibody, V domains shown) VH: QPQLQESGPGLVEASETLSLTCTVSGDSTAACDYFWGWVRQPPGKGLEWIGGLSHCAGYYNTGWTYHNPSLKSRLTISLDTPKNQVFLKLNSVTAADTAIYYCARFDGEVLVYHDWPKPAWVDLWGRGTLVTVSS VL: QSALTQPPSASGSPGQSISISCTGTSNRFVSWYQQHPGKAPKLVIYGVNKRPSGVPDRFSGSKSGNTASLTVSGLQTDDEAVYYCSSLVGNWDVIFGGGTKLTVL ) is 0.011
